- system under test: AgrA (Listeria monocytogenes, UniProt Q8YAR4, R179A)
- test: biochemical
assay endpoint: Kd (µM)
Your answer should be a plain number; it is taken to be in µM.

Entry O=CC=Cc1ccccc1 [cinnamaldehyde] , Kd reported as 175
